Examples of molecules with documented FC (fold change) follow.
Assay Text: Example 4: dose response of FKBP constructs 160-255, Ec50, Ec90 and fold change (raw and normalized to mCherry)
Assay type: cell-based
Experimental Parameters: fold change during initial analysis
Result Type: FC (fold change)

>>> readout_number("FKBP-253 (protein, Description of sequence: Construct Name: FKBP-253; Mutation(s): Q72R Q84E A117W V85R DRD I136P) HCPIKSRKGDVLHMHYTGKLEDGTEFDSSLPRNQPFVFSLGTGERIKGWDQGLLGMCEGEKRKLVIPSELGYGERGWPPKIPGGATLVFEVELLKPER")
2.3
>>> readout_number("FKBP-188 (protein, Description of sequence: Construct Name: FKBP-188; Mutation(s): Q72R Q84E A117W V85R DRD M54A F78S) HCPIKSRKGDVLHAHYTGKLEDGTEFDSSLPRNQPFVSSLGTGERIKGWDQGLLGMCEGEKRKLVIPSELGYGERGWPPKIPGGATLVFEVELLKIER")
20.5
>>> readout_number("FKBP-213 (protein, Description of sequence: Construct Name: FKBP-213; Mutation(s): Q72R Q84G A117W DRD P43R M54A) HCRIKSRKGDVLHAHYTGKLEDGTEFDSSLPRNQPFVFSLGTGGVIKGWDQGLLGMCEGEKRKLVIPSELGYGERGWPPKIPGGATLVFEVELLKIER")
28.8
